- Tested on: α-isomaltosylglucosaccharide-forming enzyme
- testSummary: Action on saccharides (substrates), Enzyme of Strain N75
- Type: biochemical, Bacillus globisporus N75
- Design: key: −: it showed no change; +: it showed a slight reduction of the color spot of the substrate and the formation of other reaction product; ++: it showed a high reduction of the color spot of the substrate and the formation of other reaction product; +++: it showed a substantial disappearance of the substrate spot and the formation of other reaction product
- appliedConditions: two units/g substrate, substrate 2% (w/v), 30° C., pH 6.0, 24 hours, TLC
propertyName: Enzymatic action, Enzyme of Strain N75

Quick note, Enzymatic action, Enzyme of Strain N75 for OC[C@@H](O)[C@@H](O[C@H]1O[C@H](CO)[C@@H](O)[C@H](O)[C@H]1O)[C@H](O)[C@@H](O)CO [Maltitol, reference compound] landed at −

Quick note, Enzymatic action, Enzyme of Strain N75 for OC[C@H]1O[C@H](O[C@H]2O[C@H](CO)[C@@H](O)[C@H](O)[C@H]2O[C@H]2O[C@H](CO)[C@@H](O)[C@H](O)[C@H]2O)[C@H](O)[C@@H](O)[C@@H]1O landed at −

Quick note, Enzymatic action, Enzyme of Strain N75 for OC[C@H]1O[C@H](O[C@H]2C(O)O[C@H](CO)[C@@H](O)[C@@H]2O)[C@H](O)[C@@H](O)[C@@H]1O (stereo partly shown) landed at +

Quick note, Enzymatic action, Enzyme of Strain N75 for OC[C@H]1O[C@@](CO)(O[C@H]2O[C@H](CO)[C@@H](O)[C@H](O)[C@H]2O)[C@@H](O)[C@@H]1O landed at −

Quick note, Enzymatic action, Enzyme of Strain N75 for OC[C@H]1O[C@@H](O[C@H]2O[C@H](CO)[C@@H](O)[C@H](O)[C@H]2O)[C@H](O)[C@@H](O)[C@@H]1O landed at +

Next:
Quick note, Enzymatic action, Enzyme of Strain N75 for OC[C@H]1O[C@H](O[C@H]2[C@H](O)[C@@H](O)[C@@H](O[C@H]3[C@H](O)[C@@H](O)[C@@H](O[C@H]4[C@H](O)[C@@H](O)C(O)O[C@@H]4CO)O[C@@H]3CO)O[C@@H]2CO)[C@H](O)[C@@H](O)[C@@H]1O (stereo partly shown) landed at +++

Quick note, Enzymatic action, Enzyme of Strain N75 for OC[C@H]1O[C@H](O[C@H]2O[C@H](CO)[C@@H](O)[C@H](O)[C@H]2O)[C@H](O)[C@@H](O)[C@@H]1O landed at −

---

- Test system: α-isomaltosylglucosaccharide-forming enzyme
- testSummary: Transfer-acceptor specificity, Enzyme of Strain C11
- Format: biochemical, Bacillus globisporus C11
- Set-up: key: −: no saccharide-transferred product was detected through transfer reaction to acceptor; ∀: a saccharide-transferred product was detected in an amount less than one percent through transfer reaction to acceptor; +: a saccharide-transferred product was detected in an amount over one percent but less than ten percent through transfer reaction to acceptor; ++: a saccharide-transferred product was detected in an amount over ten percent through transfer reaction to acceptor
- appliedConditions: acceptor 1.6%, PINE-DEX #100 donor 4%, one unit/g donor, 30° C., pH 6.0, 24 hours
propertyName: Product of transferring reaction, Enzyme of Strain C11

Quick note, Product of transferring reaction, Enzyme of Strain C11 for O=C[C@@H](O)[C@@H](O)[C@H](O)[C@H](O)CO landed at −

Quick note, Product of transferring reaction, Enzyme of Strain C11 for OC[C@H]1O[C@@H]2O[C@H]3[C@H](O)[C@@H](O)[C@@H](O[C@H]4[C@H](O)[C@@H](O)[C@@H](O[C@H]5[C@H](O)[C@@H](O)[C@@H](O[C@H]6[C@H](O)[C@@H](O)[C@@H](O[C@H]7[C@H](O)[C@@H](O)[C@@H](O[C@H]1[C@H](O)[C@H]2O)O[C@@H]7CO)O[C@@H]6CO)O[C@@H]5CO)O[C@@H]4CO)O[C@@H]3CO landed at −
